Reference source: PubChem BioAssay (EPA / NIEHS)

Target: mouse Peroxisome Proliferator-activated Receptor gamma (PPARg), Pparg (gene 19016) (UniProt P37238)
Sequence (P37238 whole entry, looked up): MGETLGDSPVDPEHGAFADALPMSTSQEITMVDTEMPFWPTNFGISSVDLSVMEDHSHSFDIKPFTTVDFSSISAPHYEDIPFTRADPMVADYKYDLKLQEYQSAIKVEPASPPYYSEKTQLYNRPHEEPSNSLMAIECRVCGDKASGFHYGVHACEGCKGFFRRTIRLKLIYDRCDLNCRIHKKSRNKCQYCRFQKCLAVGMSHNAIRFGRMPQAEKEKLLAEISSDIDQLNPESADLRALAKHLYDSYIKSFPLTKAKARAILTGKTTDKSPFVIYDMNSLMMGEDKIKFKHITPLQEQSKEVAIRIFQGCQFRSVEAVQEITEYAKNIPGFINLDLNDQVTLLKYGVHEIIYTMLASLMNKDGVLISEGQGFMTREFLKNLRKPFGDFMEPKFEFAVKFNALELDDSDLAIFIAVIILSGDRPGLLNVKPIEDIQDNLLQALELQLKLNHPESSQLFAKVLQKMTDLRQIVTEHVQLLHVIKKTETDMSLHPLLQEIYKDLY
Test: ATG_mPPARg_XSP2: Attagene TRANS-FACTORIAL Multi-Species (XSP2) HepG2 Assay for mouse Peroxisome Proliferator-activated Receptor gamma (PPARg) (AID 2283830);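 note: hits are gains in reporter mRNA above DMSO so AC50 marks activation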
Results filed as inconclusive are left out. Activity calls are given as the source filed them. Rule for the calls: active = hit-call score of the fitted dose curve at least 0.9, where 1 is the maximum; inconclusive = response in the unintended direction; inactive = score below 0.9.
Outcome codes: active, inactive

Compound | Label Value
CON(C)C(=O)Nc1ccc(Cl)c(Cl)c1 | inactive
CCCCC(CC)COC(=O)c1ccccc1C(=O)OCC(CC)CCCC (configuration not stated) | active
COC(=O)N(OC)c1ccccc1COc1ccn(-c2ccc(Cl)cc2)n1 | active
CC(C)Oc1cc(-n2nc(C(C)(C)C)oc2=O)c(Cl)cc1Cl | active
COc1ccc(C(c2ccc(OC)cc2)C(Cl)(Cl)Cl)cc1 | inactive
OC(c1ccc(Cl)cc1)(c1cncnc1)c1ccccc1Cl (configuration not stated) | active
CCCN(CCC)c1c([N+](=O)[O-])cc(S(N)(=O)=O)cc1[N+](=O)[O-] | inactive

###

Assay: APR_HepG2_p53Act_72hr: Apredica 72-hour HepG2 Assay for p53 Activation (AID 2282923);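 note: average cellular p53 protein immunofluorescence intensity in HepG2 cells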
Conditions: high-content imaging, actives raise or lower the signal
Activity calls are given as the source filed them. How the source made its calls: active means hit-call score of the fitted dose curve at least 0.9, where 1 is the maximum; inactive means score below 0.9.
Outcome codes: 1 (yes) for active, 0 (no) for inactive

Structure String | Label Value
CCc1nn(C)c(C(=O)NCc2ccc(C(C)(C)C)cc2)c1Cl | 0 (no)
COC(=O)C=C(C)OP(=O)(OC)OC | 0 (no)
CC1=C(C(=O)Nc2ccccc2)SCCO1 | 0 (no)
CN(C)C(=S)SSC(=S)N(C)C | 0 (no)
COc1ccc(C(c2ccc(OC)cc2)C(Cl)(Cl)Cl)cc1 | 1 (yes)

###

Read-out: Insulin-like growth factor-binding protein 1 (IGFBP1), IGFBP1 (gene 3484)
Test: LTEA_HepaRG_IGFBP1: Life Technologies and Expression Analysis (LTEA) Assay for Insulin-like growth factor-binding protein 1 (IGFBP1) using HepaRG (AID 2283508)
Conditions: mRNA level, 48 h; actives raise or lower the signal
Active and inactive are the calls of the source. Rule for the calls: active = hit-call score of the fitted dose curve at least 0.9, where 1 is the maximum; inactive = score below 0.9.
Outcome codes: active, inactive

Compound | Label Value
CON(C)C(=O)Nc1ccc(Cl)c(Cl)c1 | active
O=C(O)c1nc(Cl)ccc1Cl | inactive
OC(c1ccc(Cl)cc1)(c1cncnc1)c1ccccc1Cl (configuration not stated) | active
C=CCC1=C(C)C(OC(=O)C2C(C=C(C)C)C2(C)C)CC1=O (configuration not stated) | inactive
CCCC1COC(Cn2cncn2)(c2ccc(Cl)cc2Cl)O1 (configuration not stated) | active
CN(C)C(=S)SSC(=S)N(C)C | inactive
CC1COC(Cn2cncn2)(c2ccc(Oc3ccc(Cl)cc3)cc2Cl)O1 (configuration not stated) | active

###

Biological target: human CYP19A1, CYP19A1 (gene 1588)
Assay: NVS_ADME_hCYP19A1: NovaScreen (NVS) CYP450-related Enzyme Activity (ADME) Assay for human CYP19A1 (AID 2283098);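 for AC50: potency for inhibitors seen as loss of fluorescent enzyme signal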
Records with an inconclusive call do not appear. The source made the active and inactive calls. How the source made its calls: active means hit-call score of the fitted dose curve at least 0.9, where 1 is the maximum; inconclusive means response in the unintended direction; inactive means score below 0.9.

Compound | AC50
CO/C=C(/C(=O)OC)c1ccccc1Oc1cc(Oc2ccccc2C#N)ncn1 | inactive
CON(C)C(=O)Nc1ccc(Cl)c(Cl)c1 | inactive
O=C(Nc1ccccc1)Nc1ccnc(Cl)c1 | inactive
N#CC(CCc1ccc(Cl)cc1)(Cn1cncn1)c1ccccc1 (configuration not stated) | inactive
COP(N)(=O)SC (configuration not stated) | inactive
CCCC1COC(Cn2cncn2)(c2ccc(Cl)cc2Cl)O1 (configuration not stated) | 2040 nM (active)
CC1COC(Cn2cncn2)(c2ccc(Oc3ccc(Cl)cc3)cc2Cl)O1 (configuration not stated) | 706 nM (active)
